Test system: LXRa:RXRa (NR concentration 270 nM, RXRa partner concentration 90 nM)
Experiment: PBM binding z-score (relative to random genomic background probes); higher = stronger binding; sequences stand for … in GC…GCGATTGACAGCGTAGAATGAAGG
Classification by PBM binding z-score follows these ranges: low value = under 0.8, medium value = from 0.8 up to 3, high value = 3 and over

Here are 5 sequences together with their reported answers.
Band assignment needed for `AGTCAAAGTTCATCTAGGTAGCGTAAGATATGCT` please.
high value

Band assignment needed for `CCGACTGGGGCAAGGTTACAATAACGCACAGCCA` please.
low value

Band assignment needed for `GCATATAGGTAATACACGGTGAAAGTCCGATTGT` please.
medium value

Band assignment needed for `AGTCAAAGTTCAGGACGAGGGAACGTAAAGCACG` please.
high value

Band assignment needed for `GCGACTGGGGCATCAGCAGGGTACCATAACTTAA` please.
low value

New cases:
Band assignment needed for `CCTAGTTGGTCAGGAGGTGACACACCGGATATGA` please.
low value

Band assignment needed for `ATCTCTAGGTAACAACTTCAGTGAAAGAGAGGAC` please.
low value

* * *

System: PPARg:RXRa IVT, anti-PPARg (NR concentration 270 nM, RXRa partner concentration 90 nM)
Experiment: PBM binding z-score (relative to random genomic background probes); higher = stronger binding; sequences stand for … in GC…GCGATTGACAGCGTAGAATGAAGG
Listed sequences paired with reported PBM binding z-score
Simply state the number, no unit and no words.

Here are 2 sequences together with their reported answers.
PBM binding z-score in this record for `ATCGAAAGGTCGAGGTGAGTAAAGAGAAAGGGAA` : 1.99

PBM binding z-score in this record for `TCTAGTTGGTCACGGAGGTCACTCACGACGGGTA` : 3.97

Continue with the next sequence.
PBM binding z-score in this record for `CCTAGCAGGCCAATCTGGGTCTCTCAAGGCTTGA` : 1.97

* * *

Test system: PXR homodimer (NR concentration 270 nM)
Assay: PBM binding z-score (relative to random genomic background probes); higher = stronger binding; sequences stand for … in GC…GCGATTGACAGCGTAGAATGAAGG
yes (1) means recorded PBM binding z-score is 0.07 or above; no (0) means it is below 0.07.

Here are 2 sequences together with their reported answers.
// inclusive: PBM binding z-score at least 0.07? input: `TCTTGTAGATTAATAGAGGTTAAGAAAGTGCGCT`
yes (1)

// inclusive: PBM binding z-score at least 0.07? input: `CCTTACAGGTCACTGACAGGTTATAGCATTTGGA`
yes (1)

New cases:
// inclusive: PBM binding z-score at least 0.07? input: `CTCGAAAGGTCGGTTGAGGTGAGCATACGGATAA`
no (0)

// inclusive: PBM binding z-score at least 0.07? input: `CGTCCCAGGTCAAAGGTCAGTGAAGAGATGACGG`
yes (1)

// inclusive: PBM binding z-score at least 0.07? input: `CTACCAAGGTGAACAAGGTCGGTGATTACTATTC`
no (0)

// inclusive: PBM binding z-score at least 0.07? input: `CCTTGGAGGACAGAAGGTCAGAGCTGTCCGCTTT`
no (0)

// inclusive: PBM binding z-score at least 0.07? input: `TCGAGGAGGTTAGGGGCATTCAGAATGGCGTCGA`
yes (1)
